biological target: Alpha-2C adrenergic receptor (Homo sapiens) (UniProt P18825); assay: compounds altering alpha2C-coupled GIRK flux – cell-based, HEK293 alpha2C/GIRK1/2, thallium flux, primary screen (AID 624); details: thallium flux BTC fluorescence, at 10 µM, actives lie on both sides;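 further: slope of fluorescence ratio to pre-addition baseline per second over 15 to 24 s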
Sequence (P18825 whole entry, looked up): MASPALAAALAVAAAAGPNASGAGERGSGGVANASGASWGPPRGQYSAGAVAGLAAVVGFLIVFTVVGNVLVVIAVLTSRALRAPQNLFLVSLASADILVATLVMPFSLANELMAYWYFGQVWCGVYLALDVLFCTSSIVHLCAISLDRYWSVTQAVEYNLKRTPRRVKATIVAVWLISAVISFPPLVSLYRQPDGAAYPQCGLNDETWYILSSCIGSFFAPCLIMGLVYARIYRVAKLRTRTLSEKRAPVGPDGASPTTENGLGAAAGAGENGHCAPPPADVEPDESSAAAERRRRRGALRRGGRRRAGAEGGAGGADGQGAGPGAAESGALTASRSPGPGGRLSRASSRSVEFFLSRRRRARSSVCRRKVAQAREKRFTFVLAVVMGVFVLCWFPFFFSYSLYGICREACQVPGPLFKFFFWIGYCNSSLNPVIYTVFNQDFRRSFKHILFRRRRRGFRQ
recorded.endpoint: slope
When you answer, write just the number.

# example entries with known answers
molecule | reported.result
CCCCNC(=O)c1c(N)n(CCCOC)c2nc3ccccc3nc12 | 0.00654
Clc1ccc(COC(Cn2ccnc2)c2ccc(Cl)cc2Cl)cc1 (stereo not drawn) | 0.00388

Note: attention shifts to another entry.
Ask | Suppose we examine the molecule `CC(C)C(=O)c1cn(Cc2ccccc2C#N)c2ccccc12` ; what slope value has been reported?
Reply | 0.00712

* * *

assay: endothelial E-selectin expression blockers – imaging, HUVEC, immunofluorescence, MLSMR starter and 10KST1 sets, primary screen (AID 487); details: HUVEC TNFalpha-induced E-selectin immunofluorescence imaging, at 2 µM; measured here: cell number, toxicity;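 further: 100% = median nuclei count of all wells on the same plate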
recorded.endpoint: nuclei count (%)
Answer format: numeric, % implied, no suffix.

As a guide, the following entries are already answered.
compound | nuclei count (%)
O=c1[nH]c(=O)n(Cc2ccco2)c(O)c1C=NCCN1CCOCC1 | 179
CC(=O)Nc1ccc(OC(=O)c2ccccc2N)cc1 | 111
O=c1[nH]c(=O)n(-c2cccc3ccccc23)c(O)c1C=NCCCn1ccnc1 | 71.8
CCn1c(O)c(C(=O)CC2NCCc3ccccc32)c(=O)n(CC)c1=S (stereo unspecified) | 120

Ask | # query: nuclei count of entry `CCCCn1c(O)c(C=NCCN2CCCCC2)c(=O)[nH]c1=O`
Reply | 87.8

Ask | # input compound: `Cc1ccc2nc(N3CCN(C)CC3)[nH]c2c1` ; wanted: its nuclei count
Reply | 97.7

Ask | Can you share its nuclei count? I mean this compound: CCOC(C(=O)OCC(O)CN(CC)CC)(c1ccccc1)c1ccccc1 (stereo unspecified)
Reply | 184

Ask | May I ask what nuclei count has been recorded for CNCC(O)c1ccc(O)cc1 (stereo unspecified) ?
Reply | 118

Ask | Record request: nuclei count value, item `Cn1c(O)c(C=NCCCNC2CCCCC2)c(=O)n(C)c1=O`
Reply | 131

Ask | Entry under review: `COc1ccc2c(c1)c(C(=O)O)c(C)n2CC(C)C` . Reported nuclei count?
Reply | 86.4

Ask | Query: nuclei count; subject: `COc1ccc(CN2CCN(c3ccccc3F)CC2)c(OC)c1`
Reply | 125

* * *

assay: inhibitors of TNFa-induced NFkB p65 translocation, primary screen, imaging, HUVEC, MLSMR starter and 10KST1 sets (AID 438); details: HUVEC TNFa-induced p65 nuclear translocation; measured here: nuclei count (cytotoxicity indicator), at 2.08 µM;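 further: compound added about 3h40 before a 20 min TNFalpha stimulation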
# label = yes (1) if cell count >= 400 else no (0)

substance.smiles | label.class
COc1ccc(CN2CCN(c3ccccc3F)CC2)c(OC)c1 | yes (1)
CCC(=NCCOc1ccc(Cl)cc1)c1c(O)n(C)c(=O)n(C)c1=O | yes (1)
COc1cc(/C=N/n2cnnc2)ccc1OC(=O)N(C)C | yes (1)
COc1cccc(-n2c(O)c(C=NCCN3CCOCC3)c(=O)[nH]c2=O)c1 | yes (1)
NCCc1ccc(O)cc1 | yes (1)

Ask | # bool: cell count of `O=C(O)c1nonc1-c1nonc1C(=O)O` >= 400
Reply | no (0)

Ask | Reported cell count reaches at least 400 for `CCCNS(=O)(=O)c1ccc(OCC(=O)N2CCN(Cc3ccccc3)CC2)cc1` ?
Reply | no (0)

Ask | Quick check: does `Nc1ccnn1C1CCNCC1` have cell count greater than or equal to 400?
Reply | no (0)

Ask | # check: cell count of `Cc1cccc(N2CCc3c2nc2ccccc2c3N)c1` is greater than or equal to 400
Reply | yes (1)

Ask | Decide: is the reported value of cell count for `CCOc1ccc(-n2c(O)c(C=Nc3ccc(N(CC)CC)cc3)c(=O)[nH]c2=O)cc1` equal to or greater than 400?
Reply | no (0)

Ask | Does the reported cell count for `CNCCc1c[nH]c2ccccc12` fall at or above the 400 mark?
Reply | yes (1)

All figures here come from PubChem BioAssay.
